B1: TPR t1 (parent)
chain: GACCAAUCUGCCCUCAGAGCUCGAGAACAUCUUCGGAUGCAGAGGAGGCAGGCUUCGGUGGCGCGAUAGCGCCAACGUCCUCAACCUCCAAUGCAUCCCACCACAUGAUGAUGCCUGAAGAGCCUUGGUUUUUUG

# Variants of: B1
# TEST_NAME: polymerase ribozyme fitness, log enrichment relative to wild type (log ratio); higher = more active; in vitro selection for triplet polymerase activity

| ENTRY_SEQUENCE | polymerase ribozyme fitness (log ratio) |
| --- | --- |
| GACCAAUCUGCCCUCAGAGCUCGAGAACAUCUUCGGAUGCAGAGGAGGCAGUCUUCGGUGGCGCGAUAGCGCCAACGUCCUCAACCUGCAAUGCAUCCCACCACAUGAUGAUGCCUGUAGAGCCUUGGUUUUUUG [G52U C88G A118U] | -0.0981 |
| GACCAAUCUGCCCUCAGGGCUCGAGAACAUCUUCGGAUGCAGAGGAGGCAGGCUUCGGUGGCGCGUUAGCGCCAACGUCCUCAACCUCCAAUGCAUCCCACCACAUGAUGAUACCUGAAGAGCCUCGGUUUUAUG [A18G A66U G113A U126C U133A] | -4.19 |
| GACCAAUCUGCCCUUAGAGCUCGAGAACAUCUUCGGAUGCAGAGGAGGCAGGCUUCGGUGGCGCGAUAUCGCCAACGUCCUCAACCUCCAAUGCAUCCCACCACAUGAUGAUGCCUGAAGAGCCUUGGUUUUUUG [C15U G69U] | -1.38 |
| GACCAAUCUGCCCUCAGAGCUCGAGAACAUCUUAGGAUGCAGAGGAGGCAGGCUUCGGUGGCGCGAUAGCGCCAACGUCCUCAACCUCCAAUGUAUCCCACCACAUGAUGAUGCCUGAAGGGCCAUGGAUUUUUG [C34A C94U A121G U125A U129A] | -3 |
| GACCAAUCUGCCCUCAGAGCUCGAGAACAUCUUCGGAUGCAGAGGAGGCAGGCUUCGGUGGCGCGAUAGCGCCAACGUCCUCAACCUCCAAUGCAUCCCACCACAUGAUGAUACCUGUAGAGCCUUGGUUUUUUG [G113A A118U] | -2.67 |
| GACCAAUCUGCCUUCAGAUCUCGAGAACAUCUUCGGAUGCAGAGGAGGCAGUCUUCGGUGGCGUGAUAGCGCCAACGUCCUCAACCUCCAAUGCAUCCCACCACAUGAUGAUGCCUGAAGAGCCUUGGUUUUUUG [C13U G19U G52U C64U] | -3.78 |
| GACCAAUCUGCCCUCAGAGCGCGAGAACAUCUUCGGAUGAAGAGGAGGCAGGCUUCGGUGGCGCGAUAGCGCCAACGUCCUCAACCUCCAAAGCAUCCCACCACAUGAUGAUGCCUGAAGAGCCUUGGUUUUUUG [U21G C40A U92A] | -2.98 |
| GACCAAUCUGCCCUCAGAGCUCGAGAACAUCUUCGGAUGCAGAGGAGGCAGGCUUCGGUGGCGCGAUAGCUCCAACGUCCUCAACCUCCAAUGCAUCCAACCACAUGAUGAUGCCUGAAGAGCCUUGGUUUUUUG [G71U C99A] | -7.48 |
| GAACAAUCUGCCCUCAGAGCUCGAGAACAUCUUCGGAUGCAGAGUAGGCAGGCUUCGGUGGCGCGAUAGCGGCAACGUCCUCAACCCCCAAUGCAUCCCACCACAUGAUGAUGCCUGAAGAGCCUUGGUUUUUUG [C3A G45U C72G U87C] | -3.73 |
| GACCAAUCUGCUCACAGAGCUCGAGAACAUCUUCGGAUGAAGAGGAGGCAGGCUUCGGUGGCGCGAUAGCGUCAACGUCCUCAACCUCCAAUGCAUCCCACCACCUGAUGAUGCCUGAAGAGCCUUGGUUUUUUG [C12U U14A C40A C72U A105C] | -4.37 |
| GACCAAUCUGCUCUCAGAGCUCGAGAACAUCUUCGGAUGCAGAGGAGGCAGGCUUCGGUGGCGCGAUAGCGCCAACGUCCUCAACCUCCAAUGCAUCCCACCACAUGAUGAUGCCUGAAGAGUCUUGGUUUUUUG [C12U C123U] | 1.71 |
| GACCAAUCUGCCCUCAGAGCUCGAGAACAUCUUCGGAUGCAGAGGAGGCAGGCUUCGGUGGAGCGAUAGCGCCAACGUCCUCAACCUCCAAUGCAUCCCAGCACAUGAUGAUGCCUGAAGAGCCUUGGUUUUUUG [C62A C101G] | -2.98 |
| GACCAAUCUGCCCUCAGAGCUCGAGUACAUCUUCGGAUGCAGAGGAGGCAGGCUUCGGUGGCGCGAUAGCGCCAACGUCCUCAACCUCCAAUGCAACCCACCACAUGAUGAUGCCGGAAGGGCCUUGGUUUUUUG [A26U U96A U116G A121G] | -3.67 |
| GACCAAUCUGCCCCCAGAGCUCGAGAACAUCUUCGGAUGCAGAGGAGGCAGGCUUCGGUGGCGCGAUAGCGCCAACGUCUUCAACCUCCAAUGCAUCCCACCACAUGAUGAUGCCUGAAGAGCCUUGGUUUUUUG [U14C C80U] | -2.7 |
| GACCAAUCUGCCCUCAGAGCUCGAGAACAUCUUCGUAUGGAGAGGAGGCAGGCUUCGGUGGCGCGAUAGCGCCAACGGCCUCAACCUCCAAUGCAUACCACCACAUGAUGAGGCCUGAAGAGCCUUGGUUUUUUG [G36U C40G U78G C97A U112G] | -1.61 |
| GACCAAUAUGCCCUCAGAGCUCGAGAACAUCUUCAGAUGCAGAGGAGGCAGGCUUCGGUGGCGCGAUAGCGCCAACGUCCUCAACCUCUAAUGCAUCCCACCACAUGAUGAUGCCUCAAGAGCCUUGGUUUUUUG [C8A G35A C89U G117C] | -6.27 |
| GAUCAAUCUGCCCUCAGAGCUCGAGAACAUCUUCGGAUGCAGAGGAGGCAGGCUUCGGUGGCGCGAUAGCGCCAACGUUCUCAACCUCCAAUGCAUCCCACCACAUGAUGAUGCCUGAAGAGCCUUGGUUUUUUG [C3U C79U] | -0.681 |
| GACCAAACUGCCCUCAGAGAUCGAGGACAUCUUCGGAUGCAGAGGAGGCAGGCUUCGGUGGCGCGAUAGCGCCAACGUCCUUAACCUCCAAUGCAUCCCACCACAUGAUGAUGCCUGAAGAGCCAUGGUUUUUUG [U7A C20A A26G C82U U125A] | -3.24 |
| GAUCAAUCUGCCCUCAGAGGUCGAGAACAUCUUCGGAUGCAGAGGAGGCAGGCUUCGGUGGCGCGAUAGCGCCAACGUCCUCAACCUCCAAUGCAUCCCACCACAUGAUGAUACCUGAAGAGCCUUGGUUUUUUG [C3U C20G G113A] | -1.16 |
| GACCAAUCUGCCCUCAGAGCUCGAGAACAUCUUCGGAUGCGGAGGAGGCAGGCUUCGGUGGCGCGAUAGCGCCAACGUCCUCAACCUCCAAUGCAUCCCACCACAUGAUGAUGCCUGAAGAGCCUUGGUUUUUUG [A41G] | -0.0621 |
| GACCAAUCUGCCCUCAGAGCUCGAGAACAUCUUCGGAUGCAGAGGAGGCAUGCUUCGGUGACGCGAUAGCGCCAACGUCCUCAACCUCCAAUGCAUCCCACCACAUGAUGAUGCCUGAAGAGCCUUGGUUUUUUG [G51U G61A] | -3.03 |
| GACCAAUCACCCUUCAGAGCUCGAGAACAUCUUCGGAUGAAGAGGAGGCAGGCUUCGGUGGCGCGAUAGCGCCAACGUCAUCAACCUCCAAUGCAUCCCACCACAUGAUGAUGCCUGAAGAACCUUGGUUUUUUG [U9A G10C C13U C40A C80A G122A] | -3.43 |
| GACCAAUCUGCCCUCAGAGCUCGAGAACAUCUUCGGAUGCAGAGGAGGAAGGCUUCGGUGGCGCGAUAGCGCCAACGUCCUCAACCUCCAAUGCAUCCCACCACAUGAUGAAGCCUGAAGAGCCUUCGUUUUUUG [C49A U112A G127C] | -0.179 |
